Data origin: patent US20090169583A1

assay: aqueous solubility; format: physicochemical; conditions: aqueous medium; aqueous solubility determined at about 22° C. unless otherwise specified
Measurement Kind: solubility

Qu. Which solubility value belongs to "CCOC(=O)N1c2ccc(C(F)(F)F)cc2[C@@H](N(Cc2cc(C(F)(F)F)cc(C(F)(F)F)c2)C(=O)OC)C[C@H]1CC" ?
Ans. < 0.04 µg/mL
